# EXPERIMENTAL_SYSTEM: catalytic domain of human PTP1b (residues 1-299) (Homo sapiens, UniProt P18031)
# Construct: catalytic domain of human PTP1b (residues 1-299); made in house; host or cells: E. coli
# Sequence (P18031 1-299): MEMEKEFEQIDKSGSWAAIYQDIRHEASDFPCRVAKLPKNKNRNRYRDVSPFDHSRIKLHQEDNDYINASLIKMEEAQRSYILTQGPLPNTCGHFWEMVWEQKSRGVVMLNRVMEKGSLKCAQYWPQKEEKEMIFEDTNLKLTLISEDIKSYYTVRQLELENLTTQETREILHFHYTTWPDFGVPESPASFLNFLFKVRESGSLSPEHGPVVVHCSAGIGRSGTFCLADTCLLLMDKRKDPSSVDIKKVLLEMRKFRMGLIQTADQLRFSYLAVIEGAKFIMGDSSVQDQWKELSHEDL
# ASSAY_REMARKS: PTP1b pNPP hydrolysis inhibition assay
# Assay type: biochemical
# APPLIED_CONDITIONS: pNPP substrate, 25° C., pH 7.0, three fixed inhibitor concentrations; read-out: Ki Micromolar
MEASURED_PARAMETER: Ki (µM)

[
  {
    "SMILES_TEXT": "Cc1c(N2CC(=O)NS2(=O)=O)csc1-c1ccccc1",
    "REPORTED_MEASUREMENT": 41
  },
  {
    "SMILES_TEXT": "NS(=O)(=O)N(c1cccc(-c2scc(N3CC(=O)NS3(=O)=O)c2Cl)c1)C1CCCCC1",
    "REPORTED_MEASUREMENT": 1.7
  },
  {
    "SMILES_TEXT": "Cc1c(N2CC(=O)NS2(=O)=O)csc1-c1cccc(NC2CCN(S(=O)(=O)Cc3ccccc3)CC2)c1",
    "REPORTED_MEASUREMENT": 4
  },
  {
    "SMILES_TEXT": "O=C1CN(c2csc(-c3ccccc3)c2Br)S(=O)(=O)N1",
    "REPORTED_MEASUREMENT": 18
  },
  {
    "SMILES_TEXT": "O=C1CN(c2csc(-c3cccc(NC4CCCCC4)c3)c2)S(=O)(=O)N1",
    "REPORTED_MEASUREMENT": 12
  }
]

(1) Cc1c(N2CC(=O)NS2(=O)=O)csc1-c1cccc([N+](=O)[O-])c1
(2) O=C1CN(c2csc(-c3ccccc3)c2)S(=O)(=O)N1
Which value of Ki is smaller, the one for 1 or the one for 2 ? Write down the label attached to your selection.
1

The values you see were collected from patent US20080004325A1.
